Test system: THRa:RXRa (NR concentration 90 nM, RXRa partner concentration 90 nM)
Assay: PBM binding z-score (relative to random genomic background probes); higher = stronger binding; sequences stand for … in GC…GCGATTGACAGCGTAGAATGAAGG
Assign y to entries whose PBM binding z-score meets or exceeds 2; assign n to the rest.

Look over these answered cases.
> print(dat)
                      sequence.string                              study.system  class.label
1  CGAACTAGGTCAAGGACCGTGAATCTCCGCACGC  THRa:RXRa (NR concentration 90 nM, RXRa partner concentration 90 nM)            y
2  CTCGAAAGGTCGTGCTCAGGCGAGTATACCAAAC  THRa:RXRa (NR concentration 90 nM, RXRa partner concentration 90 nM)            y
3  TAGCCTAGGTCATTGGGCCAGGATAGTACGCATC  THRa:RXRa (NR concentration 90 nM, RXRa partner concentration 90 nM)            y
4  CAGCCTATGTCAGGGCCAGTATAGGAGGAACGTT  THRa:RXRa (NR concentration 90 nM, RXRa partner concentration 90 nM)            n
5  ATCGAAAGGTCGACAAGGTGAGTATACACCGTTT  THRa:RXRa (NR concentration 90 nM, RXRa partner concentration 90 nM)            y
6  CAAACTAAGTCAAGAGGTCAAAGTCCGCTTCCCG  THRa:RXRa (NR concentration 90 nM, RXRa partner concentration 90 nM)            y

Is it the case that ACTAGTTGGTCAGCTGAAGTCACACACAATTCGG has PBM binding z-score reaching or exceeding 2?
n

Is it the case that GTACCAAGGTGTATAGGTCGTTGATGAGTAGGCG has PBM binding z-score reaching or exceeding 2?
n

Is it the case that ATCGAAAGGTCGAGGTGAGGATAGAGAAAGGGAA has PBM binding z-score reaching or exceeding 2?
y

Is it the case that TCACCAAGGTGAGCTGAGGTCGTTGATCCAACTC has PBM binding z-score reaching or exceeding 2?
y

Is it the case that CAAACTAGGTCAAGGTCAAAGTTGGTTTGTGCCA has PBM binding z-score reaching or exceeding 2?
y

Is it the case that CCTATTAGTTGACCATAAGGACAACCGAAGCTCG has PBM binding z-score reaching or exceeding 2?
y

* * *

System: RXRa DBDmut IVT, anti-RXR (DBD mutation: RXRa K156A/R161A, NR concentration 90 nM)
Assay: PBM binding z-score (relative to random genomic background probes); higher = stronger binding; sequences stand for … in GC…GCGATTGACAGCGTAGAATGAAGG
Assign true (1) to entries whose PBM binding z-score meets or exceeds 0.5; assign false (0) to the rest.

Is it the case that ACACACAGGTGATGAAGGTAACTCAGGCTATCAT has PBM binding z-score reaching or exceeding 0.5?
false (0)

Is it the case that CAAACTAGGTCACAGAGGTCAAAATCCGTGCGTA has PBM binding z-score reaching or exceeding 0.5?
true (1)

Is it the case that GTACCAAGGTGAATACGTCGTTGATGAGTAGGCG has PBM binding z-score reaching or exceeding 0.5?
false (0)

Is it the case that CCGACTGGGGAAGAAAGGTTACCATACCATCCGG has PBM binding z-score reaching or exceeding 0.5?
false (0)

Is it the case that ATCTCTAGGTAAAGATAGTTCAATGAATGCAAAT has PBM binding z-score reaching or exceeding 0.5?
false (0)

* * *

System: PPARa:RXRa (NR concentration 270 nM, RXRa partner concentration 90 nM)
Assay: PBM binding z-score (relative to random genomic background probes); higher = stronger binding; sequences stand for … in GC…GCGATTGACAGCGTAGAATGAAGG
Label scheme for PBM binding z-score: bucket A = under 2, bucket B = from 2 up to 5, bucket C = 5 and over

> print(dat)
                      sequence.string  class.label
1  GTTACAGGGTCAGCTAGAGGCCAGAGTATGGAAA     bucket B

State the band of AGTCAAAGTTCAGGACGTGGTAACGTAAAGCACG
bucket B

State the band of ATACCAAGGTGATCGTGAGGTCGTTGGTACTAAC
bucket A

State the band of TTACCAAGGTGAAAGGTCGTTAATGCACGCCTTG
bucket C

* * *

System: LXRa:RXRa (NR concentration 270 nM, RXRa partner concentration 90 nM)
Assay: PBM binding z-score (relative to random genomic background probes); higher = stronger binding; sequences stand for … in GC…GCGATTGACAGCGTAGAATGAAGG
Assign True to entries whose PBM binding z-score meets or exceeds 0.2; assign False to the rest.

> print(dat)
                      sequence.string  class.label
1  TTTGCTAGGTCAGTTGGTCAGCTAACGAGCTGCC         True
2  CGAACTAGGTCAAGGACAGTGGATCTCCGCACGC         True
3  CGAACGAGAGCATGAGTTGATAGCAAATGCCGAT        False
4  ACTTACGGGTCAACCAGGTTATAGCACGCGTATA         True
5  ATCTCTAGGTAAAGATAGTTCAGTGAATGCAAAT         True

Then there is this sequence:
Is it the case that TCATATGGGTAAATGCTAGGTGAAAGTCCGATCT has PBM binding z-score reaching or exceeding 0.2?
True

* * *

Test system: PPARg:RXRa DBDmut IVT, anti-RXR (DBD mutation: RXRa K156A/R161A, NR concentration 270 nM, RXRa partner concentration 90 nM)
Test: PBM binding z-score (relative to random genomic background probes); higher = stronger binding; sequences stand for … in GC…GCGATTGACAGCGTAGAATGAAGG
readout: PBM binding z-score
Number only, please.

Worked examples, 4 sequences total:
> print(dat)
                      sequence.string              readout  observed
1  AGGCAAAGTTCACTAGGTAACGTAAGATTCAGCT  PBM binding z-score      2.96
2  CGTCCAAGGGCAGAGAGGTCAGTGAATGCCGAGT  PBM binding z-score     0.812
3  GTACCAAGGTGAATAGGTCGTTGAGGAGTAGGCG  PBM binding z-score      1.82
4  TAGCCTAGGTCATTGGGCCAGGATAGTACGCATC  PBM binding z-score      2.04

Respond only with PBM binding z-score recorded for CCGGACAGGTGAAAGGTAACTCAGTCTGGTACGC
1.68

Respond only with PBM binding z-score recorded for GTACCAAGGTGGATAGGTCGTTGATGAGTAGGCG
-0.637

Respond only with PBM binding z-score recorded for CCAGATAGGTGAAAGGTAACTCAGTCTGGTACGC
5.2

* * *

System: PPARg homodimer (NR concentration 180 nM)
Experiment: PBM binding z-score (relative to random genomic background probes); higher = stronger binding; sequences stand for … in GC…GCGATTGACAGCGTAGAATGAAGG
readout: PBM binding z-score
Number only, please.

> print(dat)
                      sequence.string  observed
1  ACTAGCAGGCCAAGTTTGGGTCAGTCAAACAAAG    -0.103
2  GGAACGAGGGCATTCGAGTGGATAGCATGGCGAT    -0.225
3  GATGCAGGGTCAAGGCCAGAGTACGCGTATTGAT       1.2

State PBM binding z-score on PPARg homodimer (NR concentration 180 nM). Entry: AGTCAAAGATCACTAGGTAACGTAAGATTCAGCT
0.697

State PBM binding z-score on PPARg homodimer (NR concentration 180 nM). Entry: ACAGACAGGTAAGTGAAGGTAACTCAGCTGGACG
-0.111

State PBM binding z-score on PPARg homodimer (NR concentration 180 nM). Entry: GCATATAGGTAATACGAGGTGAAAGTCCGATTGT
0.669

* * *

Examples of sequences with documented PBM binding z-score follow.
System: RARg homodimer (NR concentration 270 nM)
Assay: PBM binding z-score (relative to random genomic background probes); higher = stronger binding; sequences stand for … in GC…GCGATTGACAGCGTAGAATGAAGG
Number only, please.

> print(dat)
                      sequence.string              readout  observed
1  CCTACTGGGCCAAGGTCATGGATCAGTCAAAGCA  PBM binding z-score      3.48

State PBM binding z-score on RARg homodimer (NR concentration 270 nM). Entry: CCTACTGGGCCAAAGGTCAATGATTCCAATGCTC
4.85

State PBM binding z-score on RARg homodimer (NR concentration 270 nM). Entry: CGAACTAAGTCAGAACAGGACAGTGAAGGATGAT
0.431

State PBM binding z-score on RARg homodimer (NR concentration 270 nM). Entry: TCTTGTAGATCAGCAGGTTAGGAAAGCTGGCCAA
-0.406

State PBM binding z-score on RARg homodimer (NR concentration 270 nM). Entry: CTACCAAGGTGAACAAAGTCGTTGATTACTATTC
0.808

State PBM binding z-score on RARg homodimer (NR concentration 270 nM). Entry: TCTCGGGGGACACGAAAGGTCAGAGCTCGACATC
6.61

State PBM binding z-score on RARg homodimer (NR concentration 270 nM). Entry: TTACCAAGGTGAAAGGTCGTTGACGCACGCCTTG
2.25

State PBM binding z-score on RARg homodimer (NR concentration 270 nM). Entry: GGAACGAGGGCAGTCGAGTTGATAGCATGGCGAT
1.18

State PBM binding z-score on RARg homodimer (NR concentration 270 nM). Entry: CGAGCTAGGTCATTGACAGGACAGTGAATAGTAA
4.49

State PBM binding z-score on RARg homodimer (NR concentration 270 nM). Entry: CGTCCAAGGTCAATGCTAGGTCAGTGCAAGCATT
6.92

State PBM binding z-score on RARg homodimer (NR concentration 270 nM). Entry: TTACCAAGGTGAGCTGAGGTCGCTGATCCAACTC
1.22

State PBM binding z-score on RARg homodimer (NR concentration 270 nM). Entry: CCTAGTTGGTCAGGAGGTCACAGACCGGATATGA
4.13
